# Tested on: Staphylococcus aureus
# method_description: Increase in 5 ug levofloxacin antibacterial activity against Staphylococcus aureus SA1199B mutant overexpressing NorA at 128 ug/ml by disk diffusion method
# Assay type: functional
endpoint_name: inhibition zone (IZ) (mm)
Please respond with the number in mm and leave the unit unwritten.

# annotated cases, reported inhibition zone (IZ) shown
compound | endpoint_name | readout_unit | recorded_number
COc1ccc2[nH]c([S+]([O-])Cc3ncc(C)c(OC)c3C)nc2c1 (centres undefined) | inhibition zone (IZ) | mm | 25
COc1ccc2[nH]c([S+]([O-])Cc3nc4cc(OC)ccc4n4cccc34)nc2c1 (centres undefined) | inhibition zone (IZ) | mm | 24
[O-][S+](Cc1nc2ccccc2n2cccc12)c1nc2ccccc2[nH]1 (centres undefined) | inhibition zone (IZ) | mm | 24

Proceed to the following item.
Exercise: Form field: reported inhibition zone (IZ) of Cn1ccnc1[S+]([O-])Cc1nc2ccccc2n2cccc12 (centres undefined)
Key: 22
